Record form. Attribute: pIC50. Fill in for each entry.
target or test system: hTLR9 (Homo sapiens, UniProt Q9NR96)
Sequence (Q9NR96 26-1032): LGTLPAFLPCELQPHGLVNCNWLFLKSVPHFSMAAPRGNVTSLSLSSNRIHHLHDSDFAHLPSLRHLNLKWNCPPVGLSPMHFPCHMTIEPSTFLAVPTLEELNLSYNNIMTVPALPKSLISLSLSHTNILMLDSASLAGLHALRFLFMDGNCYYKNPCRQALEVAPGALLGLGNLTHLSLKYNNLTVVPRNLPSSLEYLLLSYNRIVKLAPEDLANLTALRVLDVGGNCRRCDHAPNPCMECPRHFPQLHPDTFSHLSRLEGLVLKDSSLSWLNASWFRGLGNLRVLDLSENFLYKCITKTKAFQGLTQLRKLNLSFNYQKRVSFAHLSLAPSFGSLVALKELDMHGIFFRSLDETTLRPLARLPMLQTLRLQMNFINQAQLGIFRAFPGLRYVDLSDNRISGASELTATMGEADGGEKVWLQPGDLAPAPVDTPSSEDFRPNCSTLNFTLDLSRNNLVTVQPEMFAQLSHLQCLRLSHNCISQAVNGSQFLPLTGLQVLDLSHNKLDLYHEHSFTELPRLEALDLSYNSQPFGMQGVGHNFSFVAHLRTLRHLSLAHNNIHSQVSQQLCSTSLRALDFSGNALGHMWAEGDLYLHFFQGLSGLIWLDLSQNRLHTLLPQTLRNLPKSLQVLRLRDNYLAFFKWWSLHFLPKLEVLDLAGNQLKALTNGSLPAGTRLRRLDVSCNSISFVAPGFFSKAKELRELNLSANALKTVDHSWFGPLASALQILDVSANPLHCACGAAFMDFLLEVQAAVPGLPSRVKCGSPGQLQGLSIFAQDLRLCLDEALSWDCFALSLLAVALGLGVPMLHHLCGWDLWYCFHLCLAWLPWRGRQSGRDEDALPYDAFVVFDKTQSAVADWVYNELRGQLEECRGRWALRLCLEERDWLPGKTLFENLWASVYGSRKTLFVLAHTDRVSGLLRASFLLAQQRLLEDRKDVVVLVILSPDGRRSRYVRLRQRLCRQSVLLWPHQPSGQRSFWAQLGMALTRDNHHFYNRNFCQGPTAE
assay summary: HEK293-Blue-hTLR-9 cells assay (SEAP reporter, ODN2006 stimulation)
Type: cell-based
Parameters: host or cells: HEK293 (HEK-Blue hTLR9)
particulars: HEK293-Blue-hTLR9 cells, ODN2006, 20 hrs; read-out: HEK/hTLR9 IC50
Formally, pIC50 is defined as -log10 of the concentration c, with c in mol/L.

Query block: Name the recorded pIC50 of the item Cc1cc(N2CC(C)(N)C2)cnc1N1CCN(C[C@H]2CN(c3ccc(C#N)n4ncc(F)c34)C[C@@H](C)O2)CC1 [Example 148] in your answer.
Result block: 7.12

Query block: Tell me its pIC50 given C[C@@H]1CN(c2ccc(C#N)c3ncccc23)C[C@H](CN2CCN(c3nc(N4CCNCC4)ncc3F)CC2)O1 [Example 45] as the entry.
Result block: 6.73

Query block: Please give measured pIC50 of the following entry: [2H]c1ccc2c(N3C[C@H](CN4CCN(c5cnc(N6CC(C)(N)C6)cc5C)CC4)O[C@H](C)C3)ccc(C#N)c2n1 [Example 133]
Result block: 7.17

Query block: Item C[C@@H]1CN(c2ccc(C#N)c3ncccc23)C[C@H](CN2CCC(C#N)(c3ccc(N4CCNCC4)cc3)CC2)O1 [Example 11] : provide pIC50
Result block: 7.04

* * *

Field: inhibition at 5 min, 10 µM. Provide a value for each of the compounds that follow.
target or test system: CYP2C9 (Homo sapiens)
Construct: tissue BD-Gentest 452117; host or cells: human liver microsomes
Sequence (P11712 whole entry): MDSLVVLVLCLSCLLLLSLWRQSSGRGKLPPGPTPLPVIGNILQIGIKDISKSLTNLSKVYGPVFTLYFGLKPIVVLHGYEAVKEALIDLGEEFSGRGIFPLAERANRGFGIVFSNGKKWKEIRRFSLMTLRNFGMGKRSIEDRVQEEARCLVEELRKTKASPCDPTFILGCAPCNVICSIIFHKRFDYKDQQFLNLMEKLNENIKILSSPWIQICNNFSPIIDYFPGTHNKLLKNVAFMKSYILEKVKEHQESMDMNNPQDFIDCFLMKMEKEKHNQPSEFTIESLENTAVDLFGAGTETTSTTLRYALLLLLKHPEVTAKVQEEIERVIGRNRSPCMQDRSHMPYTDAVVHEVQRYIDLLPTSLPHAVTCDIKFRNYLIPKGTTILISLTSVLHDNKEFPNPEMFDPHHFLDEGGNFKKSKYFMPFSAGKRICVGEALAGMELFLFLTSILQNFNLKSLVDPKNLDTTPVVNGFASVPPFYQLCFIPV
assay summary: CYP inhibition assay in human liver microsome, CYP2C9
Format: in vitro ADME
particulars: human, human liver microsomes, probe diclofenac 5 μM, substrate diclofenac 5 μM, first value of 2C9/2D6/3A4
Return type: number; implicit unit %.

Query block: Respond only with inhibition at 5 min, 10 µM recorded for [2H]c1nc2c(C#N)ccc(N3C[C@H](CN4CCN(c5nc(C)cc(N6CC(N)C6)n5)CC4)O[C@H](C)C3)c2nc1[2H]
Result block: -2

Query block: Identify measured inhibition at 5 min, 10 µM associated with CO[C@@H]1CN(c2ccc(C3CN(C[C@H]4CN(c5ccc(C#N)n6ncc(F)c56)C[C@@H](C)O4)C3)cn2)C[C@H]1N
Result block: -1

Query block: Specify measured inhibition at 5 min, 10 µM for C[C@@H]1CN(c2ccc(C#N)c3ncccc23)C[C@H](CN2CCN(c3cncc(N4CCNCC4)c3)CC2)O1 .
Result block: 2

Query block: Please indicate inhibition at 5 min, 10 µM recorded for CO[C@@H]1CN(c2ccc(N3CCN(C[C@H]4CN(c5ccc(C#N)n6ncc(F)c56)C[C@@H](C)O4)CC3)cn2)C[C@H]1N
Result block: -3.5

Query block: Input C[C@@H]1CN(c2ccc(C#N)c3ncccc23)C[C@H](CN2CCC(C#N)(c3ccc(N4CCNCC4)cc3)CC2)O1 , output reported inhibition at 5 min, 10 µM.
Result block: 0.5

Query block: For C[C@@H]1CN(c2ccc(C#N)c3ncccc23)C[C@H](CN2CCN(c3ccc([C@@H]4CNCCO4)cc3)CC2)O1 , write its inhibition at 5 min, 10 µM.
Result block: 11.5

Query block: Using the record for C[C@@H]1CN(c2ccc(C#N)c3ncccc23)C[C@H](CN2CCN(c3ccnc(N4CCN(C)CC4)n3)CC2)O1 , state its measured inhibition at 5 min, 10 µM.
Result block: 20

Query block: Identify measured inhibition at 5 min, 10 µM corresponding to [2H]c1ccc2c(N3C[C@H](CN4CCN(c5nc(C)cc(N6C[C@H](OC)[C@@H](N)C6)n5)CC4)O[C@H](C)C3)ccc(C#N)c2n1
Result block: 44.5

* * *

target or test system: hERG channel (Homo sapiens, UniProt Q12809)
Construct: expressed in transfected cells; host or cells: CHO (Chinese hamster ovary)
Sequence (Q12809 whole entry): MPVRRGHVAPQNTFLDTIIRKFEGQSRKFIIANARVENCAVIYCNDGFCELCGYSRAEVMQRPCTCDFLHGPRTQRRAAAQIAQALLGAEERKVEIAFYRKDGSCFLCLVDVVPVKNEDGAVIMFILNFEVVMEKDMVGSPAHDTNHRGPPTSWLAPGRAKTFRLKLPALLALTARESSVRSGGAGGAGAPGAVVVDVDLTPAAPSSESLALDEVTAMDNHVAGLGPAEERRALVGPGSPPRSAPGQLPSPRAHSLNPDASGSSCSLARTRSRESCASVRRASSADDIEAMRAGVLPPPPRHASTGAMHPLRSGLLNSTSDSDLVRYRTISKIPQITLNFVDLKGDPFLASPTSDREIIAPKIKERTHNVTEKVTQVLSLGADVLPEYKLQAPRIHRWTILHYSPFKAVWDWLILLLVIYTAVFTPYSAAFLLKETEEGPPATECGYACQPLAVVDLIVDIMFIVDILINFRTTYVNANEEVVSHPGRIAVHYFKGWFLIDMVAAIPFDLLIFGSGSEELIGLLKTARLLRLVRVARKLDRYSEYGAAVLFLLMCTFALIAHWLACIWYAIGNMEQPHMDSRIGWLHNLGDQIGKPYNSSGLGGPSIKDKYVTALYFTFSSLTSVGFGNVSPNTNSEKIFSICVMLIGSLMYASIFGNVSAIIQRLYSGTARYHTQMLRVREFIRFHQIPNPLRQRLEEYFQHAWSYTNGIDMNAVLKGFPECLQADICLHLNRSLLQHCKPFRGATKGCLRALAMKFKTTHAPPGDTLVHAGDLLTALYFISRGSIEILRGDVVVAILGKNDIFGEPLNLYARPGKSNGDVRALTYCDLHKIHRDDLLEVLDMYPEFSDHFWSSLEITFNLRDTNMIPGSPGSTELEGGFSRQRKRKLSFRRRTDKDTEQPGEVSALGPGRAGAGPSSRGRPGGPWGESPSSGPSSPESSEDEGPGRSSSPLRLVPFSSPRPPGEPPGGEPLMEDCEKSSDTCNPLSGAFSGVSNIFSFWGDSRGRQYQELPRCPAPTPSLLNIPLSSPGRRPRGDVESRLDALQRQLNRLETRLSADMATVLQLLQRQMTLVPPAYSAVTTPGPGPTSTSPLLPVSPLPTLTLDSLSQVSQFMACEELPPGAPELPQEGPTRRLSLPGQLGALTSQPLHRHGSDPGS
assay summary: hERG channel inhibition assay (patch-clamp, CHOhERG cells)
Format: cell-based
particulars: safety ratio
readout name: hERG IC20/TLR7 IC50

Query block: Give me measured hERG IC20/TLR7 IC50, please, for this molecule: C[C@@H]1CN(c2ccc(C#N)n3ncc(F)c23)C[C@H](CN2CCN(c3ccc(N4CC(C)(N)C4)nc3)CC2)O1 [Example 154]
Result block: >312

Query block: Let me know recorded hERG IC20/TLR7 IC50 for C[C@@H]1CN(c2ccc(C#N)c3ncccc23)C[C@H](CN2CCN(c3ccnc(N4CCNCC4)n3)CC2)O1 [Example 15] , thanks.
Result block: >1429

Query block: Annotate the molecule [2H]c1nc2c(C#N)ccc(N3C[C@H](CN4CCN(c5nc(C)cc(N6CC(N)C6)n5)CC4)O[C@H](C)C3)c2nc1[2H] [Example 124] with its measured hERG IC20/TLR7 IC50.
Result block: >2000

Query block: Identify measured hERG IC20/TLR7 IC50 corresponding to Cc1cc(N2CCNCC2)nc(N2CCN(C[C@H]3CN(c4ccc(C#N)c5nccnc45)C[C@@H](C)O3)CC2)n1 [Example 114]
Result block: >3333

* * *

target or test system: human TLR8 (Homo sapiens, UniProt Q9NR97)
Construct: host or cells: HEK293 (HEK-Blue hTLR8)
Sequence (Q9NR97 27-1041): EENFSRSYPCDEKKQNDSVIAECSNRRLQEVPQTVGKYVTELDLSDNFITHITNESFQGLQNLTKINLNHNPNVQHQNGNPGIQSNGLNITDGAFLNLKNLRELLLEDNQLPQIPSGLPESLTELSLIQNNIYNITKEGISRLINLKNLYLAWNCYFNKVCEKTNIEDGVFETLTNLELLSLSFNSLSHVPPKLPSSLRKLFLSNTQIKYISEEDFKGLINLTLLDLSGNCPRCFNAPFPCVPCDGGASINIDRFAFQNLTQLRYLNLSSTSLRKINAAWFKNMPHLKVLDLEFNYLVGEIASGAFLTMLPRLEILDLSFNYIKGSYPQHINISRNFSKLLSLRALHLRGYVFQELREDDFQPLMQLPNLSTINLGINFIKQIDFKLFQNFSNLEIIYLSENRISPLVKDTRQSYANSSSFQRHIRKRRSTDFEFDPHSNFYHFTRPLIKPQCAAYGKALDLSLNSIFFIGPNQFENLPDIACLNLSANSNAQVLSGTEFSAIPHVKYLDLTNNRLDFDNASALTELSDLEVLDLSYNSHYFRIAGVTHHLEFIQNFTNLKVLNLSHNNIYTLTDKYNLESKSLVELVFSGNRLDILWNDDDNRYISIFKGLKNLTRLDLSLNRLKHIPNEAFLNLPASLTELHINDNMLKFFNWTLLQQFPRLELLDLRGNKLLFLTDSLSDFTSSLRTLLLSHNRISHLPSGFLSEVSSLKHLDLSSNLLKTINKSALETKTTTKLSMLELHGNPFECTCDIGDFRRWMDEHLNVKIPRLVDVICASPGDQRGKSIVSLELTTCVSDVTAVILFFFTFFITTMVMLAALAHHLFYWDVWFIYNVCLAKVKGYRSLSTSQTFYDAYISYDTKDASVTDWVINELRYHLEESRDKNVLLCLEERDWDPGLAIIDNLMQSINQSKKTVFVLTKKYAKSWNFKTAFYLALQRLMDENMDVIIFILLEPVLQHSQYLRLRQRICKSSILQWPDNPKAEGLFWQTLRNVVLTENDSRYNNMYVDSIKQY
assay summary: HEK293-Blue-hTLR-8 cells assay (SEAP reporter, R848 stimulation)
Assay type: cell-based
particulars: HEK293-Blue-hTLR8 cells, R848, 20 hrs; read-out: HEK/hTLR8 IC50
Description: HEK293-Blue-hTLR-8 Cells Assay: A stable HEK293-Blue-hTLR-8 cell line was purchased from InvivoGen (Cat. #: hkb-ht1r8, San Diego, Calif., USA). […] The cell culture supernatant SEAP reporter activity was determined using QUANTI-Blue™ kit (Cat. #: rep-qb1, Invivogen, San Diego, Ca, USA) at a wavelength of 640 nm, a detection medium that turns purple or blue in the presence of alkaline phosphatase. […]
So basically: is IC50 under 10 nM? Then label 1. Not under? Then label 0.

Query block: Could you please tell me whether IC50 recorded for Cc1cc(N2CCN(C[C@H]3CN(c4ccc(C#N)c5ncccc45)C[C@@H](C)O3)CC2)nc(N2CCNCC(O)C2)n1 (stereo partly shown) [Example 66] is less than 10 nM?
Result block: label 1

Query block: Is IC50 of C[C@@H]1CN(c2ccc(C#N)c3ncccc23)C[C@H](CN2CCN(c3ccnc(N4C[C@@H](N)[C@H](F)C4)n3)CC2)O1 [Example 96] strictly below 10 nM?
Result block: label 1

Query block: I'd appreciate it if you could check whether COC1CN(c2nccc(N3CCN(C[C@H]4CN(c5ccc(C#N)c6ncccc56)C[C@@H](C)O4)CC3)n2)CC1N (stereo in doubt) [Example 93] has IC50 smaller than 10 nM.
Result block: label 1

Query block: Lab note: confirm whether the reported IC50 for this compound is below 10 nM, equality not counting. compound: Cc1cc(N2CC(N)C2)nc(N2CCN(C[C@H]3CN(c4ccc(C#N)c5nccnc45)C[C@@H](C)O3)CC2)n1 [Example 123]
Result block: label 1

Query block: Report whether reported IC50 is lower than 10 nM (strictly) for C[C@@H]1CN(c2ccc(C#N)c3ncccc23)C[C@H](CN2CCN(c3ccnc(N4CCN(C(=O)C5CCN5)CC4)n3)CC2)O1 (stereo partly shown) [Example 34]
Result block: label 1

Query block: In plain terms, does [2H]c1ccc2c(N3C[C@H](CN4CCN(c5nc(C)cc(N6CC(C)(N)C6)n5)CC4)O[C@H](C)C3)ccc(C#N)c2n1 [Example 135] come in under 10 nM for IC50?
Result block: label 1

Query block: # check: IC50 < 10 nM for COC1CN(c2ccc(C3CN(C[C@H]4CN(c5cc(=O)n(C)c6ncccc56)C[C@@H](C)O4)C3)cc2)C[C@H]1N (stereo in doubt) [Example 172]
Result block: label 0

Query block: Please state whether IC50 is below 10 nM for C[C@@H]1CN(c2ccc(C#N)c3ncccc23)C[C@H](CN2CCN(c3cccc(C4CNCCO4)c3)CC2)O1 (stereo partly shown) [Example 62]
Result block: label 0

Query block: Dear colleague, could you confirm whether IC50 of [2H]c1ccc2c(N3C[C@H](CN4CC(O)(c5ccc(N6CC(C)(N)C6)cc5)C4)O[C@H](C)C3)ccc(C#N)c2n1 [Example 156] falls below 10 nM? Thanks.
Result block: label 0

Query block: Strictly below 10 nM: is that where IC50 of Cc1cc(N2CCNCC2)nc(N2CCN(C[C@H]3CN(c4ccc(C#N)c5nccnc45)C[C@@H](C)O3)CC2)n1 [Example 114] sits?
Result block: label 1

Query block: Does COC1CN(c2nccc(N3CCN(C[C@H]4CN(c5ccc(C#N)c6ncccc56)C[C@@H](C)O4)CC3)n2)C[C@H]1N (stereo in doubt) [Example 52] have IC50 strictly under 10 nM?
Result block: label 1

Query block: Below 10 nM on IC50? Entry C[C@@H]1CN(c2ccc(C#N)n3ncc(F)c23)C[C@H](CN2CCN(c3ccc(N4CC5(CNCCO5)C4)nc3)CC2)O1 [Example 169]
Result block: label 0

Reference for the values: patent US20210395239A1
